tested on: MV4-11; assay: Cytotoxicity towards MV4-11 cell line; format: cell-based; details: Homo sapiens
pIC50: −log10 of the molar value.
Reported pIC50 values are given for each entry in this list.
measured parameter: pIC50

1. O=C(NCCCc1cn[nH]c1)c1ccc(-n2cccn2)c(C#Cc2ccccc2C(F)(F)F)c1 = > 6.00
2. O=C(NC/C=C/c1cn[nH]c1)c1ccc(N2CCCC2)c(C#Cc2ccc(F)cc2)c1 = > 6.00
3. O=C(NCCCc1cn[nH]c1)c1ccc(-n2cccn2)c(C#CC2(O)CCCCC2)c1 = 5.00 to 5.30
4. CCc1nnc(NC(=O)c2ccc(-n3cccn3)c(C#Cc3cccnc3)c2)s1 = < 4.70
5. O=C(NCc1ccco1)c1ccc(-n2cccn2)c(C#Cc2ccccn2)c1 = < 4.70
6. Cc1nn(-c2ccc(C(=O)NCCc3c[nH]cn3)cc2C#Cc2ccccc2)c(C)c1C = 4.70 to 5.00
7. O=C(NCCCc1cn[nH]c1)c1ccc(-n2cccn2)c(C#Cc2ccccc2Cl)c1 = > 6.00
8. O=C(NCCCc1cn[nH]c1)c1ccc(N2CCCCCC2)c(C#Cc2ccc(F)cc2)c1 = > 6.00

====

tested on: U-937; experiment: Cytotoxicity towards U-937 cell line; format: cell-based; details: Homo sapiens
pIC50: −log10 of the molar value.
measured parameter: pIC50

1) O=C(NCc1ccco1)c1ccc(-n2cccn2)c(C#Cc2cccnc2)c1 = 4.70 to 5.00
2) O=C(NCCCn1ccnc1)c1ccc(-n2cccn2)c(C#Cc2ccncc2)c1 = > 6.00
3) NCc1ccc(C#Cc2cc(C(=O)NCCCc3cn[nH]c3)ccc2-n2cccn2)cc1 = > 6.00
4) O=C(NC/C=C/c1cn[nH]c1)c1ccc(N2CCCC2)c(C#Cc2ccc(F)cc2)c1 = > 6.00
5) O=C(NCc1cccnc1)c1ccc(-n2cccn2)c(C#Cc2ccccc2)c1 = > 6.00
6) Cc1ccnn1CCNC(=O)c1ccc(-n2cccn2)c(C#Cc2cccnc2)c1 = < 4.70

====

tested on: U-937; test: Cytotoxicity towards U-937 cell line; type: cell-based; conditions: Homo sapiens
measured parameter: IC50

1. O=C(NCCCc1cn[nH]c1)c1ccc(N2CCCCCC2)c(C#Cc2ccc(F)cc2)c1 = < 1 µM
2. COc1cccc(C#Cc2cc(C(=O)NCCCn3ccnc3)ccc2-n2cccn2)c1 = < 1 µM
3. Cc1nccn1CCCNC(=O)c1ccc(N2CCN(CCOCCOCCOCCN)CC2)c(C#Cc2ccc(F)cc2)c1 = 10 to 20 µM
4. Cc1ccc(C(=O)NCCCn2ccnc2)cc1C#Cc1ccccc1 = < 1 µM

====

tested on: U-937; assay: Cytotoxicity towards U-937 cell line; format: cell-based; details: Homo sapiens
pIC50: −log10 of the molar value.
Reported pIC50 values are given for each entry in this list.
measured parameter: pIC50

1) O=C(NCC(O)Cc1cn[nH]c1)c1cnc(N2CCOCC2)c(C#Cc2ccc(F)cc2)c1 (centres unmarked) = 5.30 to 6.00
2) CC1(C)CCCN(c2ccc(C(=O)NCCCc3cn[nH]c3)cc2C#Cc2ccc(F)cc2)C1 = > 6.00
3) C[C@@H]1CN(c2ccc(C(=O)N[C@@H]3CC[C@@H](n4ccnc4)[C@@H]3O)cc2C#Cc2ccc(F)cc2)C[C@H](C)O1 = 5.30 to 6.00
4) O=C(NCCCc1cn[nH]c1)c1ccc(-c2ccncc2)c(C#Cc2ccc(F)cc2)c1 = > 6.00
5) O=C(NCCn1cncn1)c1ccc(-n2cccn2)c(C#Cc2ccccc2)c1 = > 6.00
6) CN(C)CC1(O)CCN(c2ccc(C(=O)NCCCc3cn[nH]c3)cc2C#Cc2ccc(F)cc2)C1 (centres unmarked) = > 6.00
7) Cc1nccn1CCN(C)C(=O)c1ccc(-n2cccn2)c(C#Cc2ccccc2)c1 = < 4.70
8) Cc1nn(-c2ccc(C(=O)NCCc3c[nH]cn3)cc2C#Cc2ccccc2)c(C)c1C = 5.00 to 5.30
